Tested on: Soybean
Assay: pre-emergence herbicide test
Type: in vivo
Details: Glycine max, pre-emergence, 0.0357 lb/A; read-out: % plant inhibition
In this section, each of the molecules is paired with its reported inhibition at 40.0143 g/ha.

# mol, inhibition at 40.0143 g/ha, %
measured = [
    ("Cc1c(-c2cc(OCC(=O)OC(C)C)c(Cl)cc2F)nn(C)c1C(F)(F)F", 5),
    ("COc1cc(-c2nn(C)c(C(F)(F)F)c2C)c(F)cc1[N+](=O)[O-]", 0),
    ("Cc1c(-c2cc(O)c(Cl)cc2F)nn(C)c1C(F)(F)F", 0),
    ("C#CCOc1cc(-c2nn(C)c(C(F)(F)F)c2C)c(F)cc1Cl", 100),
    ("Cc1c(-c2cc(F)c([N+](=O)[O-])cc2F)nn(C)c1C(F)(F)F", 0),
    ("COc1cc(-c2nn(C)c(C(F)(F)F)c2C)c(F)cc1Cl", 50),
]
